Listed here are molecules together with their documented pKd.
biological target: RAR beta (Homo sapiens); test: Transactivation test (luciferase reporter, HeLa stable transfectants), RAR beta; conditions: apparent Kd from Schild regression, cross curves against reference antagonist, HeLa cells; read-out: RAR beta Kdapp
Sequence (P10826 183-417 limits assumed): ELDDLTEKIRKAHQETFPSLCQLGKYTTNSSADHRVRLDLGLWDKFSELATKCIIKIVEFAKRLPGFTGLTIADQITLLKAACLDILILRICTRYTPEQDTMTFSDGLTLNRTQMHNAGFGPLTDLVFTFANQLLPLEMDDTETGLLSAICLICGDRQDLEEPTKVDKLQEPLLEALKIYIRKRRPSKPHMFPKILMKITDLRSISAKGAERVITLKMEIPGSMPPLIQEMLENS
Recall that pKd is obtained by taking minus log10 of the concentration measured in molar.

Worked set:
# Smiles structure, pKd
rows = [
    ("CC1(C)CCC(C)(C)c2cc(-c3cc(-c4ccc(C(=O)O)cc4O)ccc3-c3ccccc3)ccc21", 8.40),
    ("CC1(C)CCC(C)(C)c2cc(-c3cc(-c4ccc(C(=O)O)cc4)ccc3-c3ccccc3)ccc21", 9.00),
    ("Cc1cc(-c2ccc(-c3ccccc3)c(-c3ccc4c(c3)C(C)(C)CCC4(C)C)c2)ccc1C(=O)O", 9.00),
]

Any idea what its pKd is? The molecule is `CC1(C)CCC(C)(C)c2cc(-c3cc(-c4ccc(C(=O)O)cn4)ccc3-c3ccccc3)ccc21`
9.00

Try `CC1(C)CCC(C)(C)c2cc(-c3cc(-c4ccc(C(=O)O)c(O)c4)ccc3-c3ccccc3)ccc21` next.
9.00

Try `COc1cc(C(=O)O)ccc1-c1ccc(-c2ccccc2)c(-c2ccc3c(c2)C(C)(C)CCC3(C)C)c1` next.
8.70

----------
Listed here are molecules together with their documented pKd.
molecular target: RAR alpha (Homo sapiens); assay: Transactivation test (luciferase reporter, HeLa stable transfectants), RAR alpha; conditions: apparent Kd from Schild regression, cross curves against reference antagonist, HeLa cells; read-out: RAR alpha Kdapp
Sequence (P10276 183-417 limits assumed): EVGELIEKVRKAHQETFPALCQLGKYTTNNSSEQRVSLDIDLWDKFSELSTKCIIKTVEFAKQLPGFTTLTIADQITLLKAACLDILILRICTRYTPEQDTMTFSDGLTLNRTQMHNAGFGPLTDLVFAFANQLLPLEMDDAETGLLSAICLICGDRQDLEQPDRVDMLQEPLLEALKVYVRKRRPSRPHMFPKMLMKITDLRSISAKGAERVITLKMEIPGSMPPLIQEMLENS
Recall that pKd is obtained by taking minus log10 of the concentration measured in molar.

# Molecule, pKd
records = [
    ("CC1(C)CCC(C)(C)c2cc(-c3cc(-c4ccc(C(=O)O)cc4O)ccc3-c3ccccc3)ccc21 [Example 42]", 8.10),
]

Any idea what its pKd is? The molecule is CC1(C)CCC(C)(C)c2cc(-c3cc(-c4ccc(C(=O)O)cn4)ccc3-c3ccccc3)ccc21 [Example 47]
8.40

Try COc1cc(C(=O)O)ccc1-c1ccc(-c2ccccc2)c(-c2ccc3c(c2)C(C)(C)CCC3(C)C)c1 [Example 44] next.
8.40

Try Cc1cc(-c2ccc(-c3ccccc3)c(-c3ccc4c(c3)C(C)(C)CCC4(C)C)c2)ccc1C(=O)O [Example 41] next.
8.70

Try CC1(C)CCC(C)(C)c2cc(-c3cc(-c4ccc(C(=O)O)c(O)c4)ccc3-c3ccccc3)ccc21 [Example 46] next.
8.70

Try CC1(C)CCC(C)(C)c2cc(-c3cc(-c4ccc(C(=O)O)cc4)ccc3-c3ccccc3)ccc21 [Example 14] next.
8.70

----------
biological target: RAR gamma (Homo sapiens); construct: RAR gamma Kdapp; experiment: Transactivation test (luciferase reporter, HeLa stable transfectants), RAR gamma; conditions: apparent Kd from Schild regression, cross curves against reference antagonist, HeLa cells; read-out: RAR gamma Kdapp
Sequence (P13631 185-419 limits assumed): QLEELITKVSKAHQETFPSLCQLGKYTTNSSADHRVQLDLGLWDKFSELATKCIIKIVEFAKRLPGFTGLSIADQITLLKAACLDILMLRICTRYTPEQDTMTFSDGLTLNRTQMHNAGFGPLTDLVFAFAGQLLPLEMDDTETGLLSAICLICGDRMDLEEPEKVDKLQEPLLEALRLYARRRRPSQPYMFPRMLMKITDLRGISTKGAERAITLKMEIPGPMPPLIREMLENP
Value type: Kd (pM)
Supply the numeric figure in pM, leaving out any unit text.

Worked set:
# Molecule, Kd / pM
measured = [
    ("CC1(C)CCC(C)(C)c2cc(-c3cc(-c4ccc(C(=O)O)c(O)c4)ccc3-c3ccccc3)ccc21 [Example 46]", 250),
    ("COc1cc(C(=O)O)ccc1-c1ccc(-c2ccccc2)c(-c2ccc3c(c2)C(C)(C)CCC3(C)C)c1 [Example 44]", 500),
]

Now for a further molecule.
Any idea what its Kd is? The molecule is Cc1cc(-c2ccc(-c3ccccc3)c(-c3ccc4c(c3)C(C)(C)CCC4(C)C)c2)ccc1C(=O)O [Example 41]
250
